- Tested System: Mitogen-activated protein kinase kinase kinase kinase 1 (Homo sapiens, UniProt Q92918)
- Sequence (Q92918 whole entry): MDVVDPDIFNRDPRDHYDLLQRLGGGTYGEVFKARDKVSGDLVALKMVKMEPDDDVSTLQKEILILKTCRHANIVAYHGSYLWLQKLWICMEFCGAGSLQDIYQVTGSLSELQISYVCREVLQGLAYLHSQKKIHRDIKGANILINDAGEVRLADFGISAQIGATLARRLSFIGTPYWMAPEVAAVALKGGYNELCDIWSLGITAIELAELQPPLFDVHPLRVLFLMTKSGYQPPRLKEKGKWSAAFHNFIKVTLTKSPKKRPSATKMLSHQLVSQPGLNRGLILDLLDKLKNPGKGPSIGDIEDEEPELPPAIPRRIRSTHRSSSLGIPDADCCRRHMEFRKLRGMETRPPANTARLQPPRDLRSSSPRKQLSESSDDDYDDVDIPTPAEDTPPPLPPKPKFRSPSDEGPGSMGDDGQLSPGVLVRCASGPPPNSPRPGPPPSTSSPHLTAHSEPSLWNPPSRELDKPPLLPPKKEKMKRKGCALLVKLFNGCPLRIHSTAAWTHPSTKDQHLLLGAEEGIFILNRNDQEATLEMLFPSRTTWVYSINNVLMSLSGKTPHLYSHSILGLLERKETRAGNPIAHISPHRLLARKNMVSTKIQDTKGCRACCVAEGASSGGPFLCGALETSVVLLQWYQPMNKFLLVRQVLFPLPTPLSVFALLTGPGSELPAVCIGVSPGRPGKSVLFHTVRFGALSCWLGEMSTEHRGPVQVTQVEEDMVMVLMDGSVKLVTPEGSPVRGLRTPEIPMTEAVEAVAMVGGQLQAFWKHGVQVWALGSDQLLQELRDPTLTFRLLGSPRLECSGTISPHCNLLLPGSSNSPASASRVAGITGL
- Protocol Notes: Inhibition of human HPK1 in human Jurkat T cells assessed as inhibition of SLP76 phosphorylation
Property Name: IC50 (nM)
Report the value in nM with no unit label.

Data request: Hello, please tell me recorded IC50 for this one: Cn1cc(Nc2ncc(C3=CCC[C@@H](NC(=O)c4ccccc4)C3)nc2C(N)=O)cn1
Data returned: 150

----------
- Tested System: Mitogen-activated protein kinase kinase kinase kinase 1 (Homo sapiens, UniProt Q92918)
- Protocol Notes: Inhibition of human HPK1 in human Jurkat T cells assessed as increase in anti-human CD3 stimulated IL-2 secretion preincubated for 10 mins followed by anti-human CD3 stimulation and measured after 24 hrs by ELISA
Property Name: EC50 (nM)
Response body: numeric value in nM, unit text excluded.

Data request: // fetch EC50 for CN1CCc2cc(Cl)c(Nc3nc(Nc4ccccc4S(=O)(=O)N(C)C)c4c(-c5cccnc5)c[nH]c4n3)cc2C1 ; system: Mitogen-activated protein kinase kinase kinase kinase 1 (Homo sapiens, UniProt Q92918)
Data returned: 1390

----------
- Tested System: Mitogen-activated protein kinase kinase kinase kinase 1 (Homo sapiens)
- Protocol Notes: Inhibition of human HPK1 using myelin basic protein and [gamma33P]ATP as substrate incubated for 40 mins in presence of Mg/ATP by radiometric scintillation counting analysis
pIC50: −log10 of the molar value.
Lab note: anything with pIC50 at or over 8 counts as satisfied; the rest go in not satisfied.

Data request: hey, is pIC50 for this one >= 8? COc1cc2c(cc1Nc1nc(Nc3ccccc3S(=O)(=O)N(C)C)c3c(-c4ccoc4)c[nH]c3n1)CN(C)CC2
Data returned: satisfied

Data request: Hi team, for COc1cc2c(cc1Nc1nc(Nc3ccccc3S(=O)(=O)N3CCCCC3)c3cc[nH]c3n1)CN(C)CC2 , is the recorded pIC50 at or above 8?
Data returned: not satisfied

Data request: Please tell me: is the molecule CN1CCc2ccc(Nc3nc(Nc4ccccc4S(=O)(=O)N(C)C)c4c(-c5cccnc5)c[nH]c4n3)cc2C1 at or over 8 in terms of pIC50?
Data returned: satisfied

Data request: Is the recorded value of pIC50 equal to or greater than 8 for this molecule? COc1cc2c(cc1Nc1nc(Nc3ccccc3S(=O)(=O)N(C)C)c3cc[nH]c3n1)CN(C)CC2
Data returned: satisfied

----------
- Tested System: Mitogen-activated protein kinase kinase kinase kinase 1 (Homo sapiens)
- Protocol Notes: Inhibition of human HPK1 using myelin basic protein and [gamma33P]ATP as substrate incubated for 40 mins in presence of Mg/ATP by radiometric scintillation counting analysis
Record form. Attribute: pIC50. Fill in for each entry.
Here pIC50 is given on a logarithmic scale as minus log10 of the concentration in mol/L.

Data request: Please look at this compound and report its pIC50: COc1cc2c(cc1Nc1nc(Nc3ccccc3S(=O)(=O)N(C)C)c3c(-c4cnccc4C)c[nH]c3n1)CN(C)CC2
Data returned: 7.85

Data request: Annotate the compound COc1cc2c(cc1Nc1nc(Nc3ccccc3)c3cc[nH]c3n1)CN(C)CC2 with its measured pIC50.
Data returned: 6.51

Data request: Read off the recorded pIC50 for COc1ccc(CN(C)C)cc1Nc1nc(Nc2ccccc2S(=O)(=O)N(C)C)c2c(-c3cccnc3)c[nH]c2n1
Data returned: 7.01

----------
- Tested System: Mitogen-activated protein kinase kinase kinase kinase 1 (Homo sapiens, UniProt Q92918)
- Protocol Notes: Inhibition of human HPK1 using myelin basic protein and [gamma33P]ATP as substrate incubated for 40 mins in presence of Mg/ATP by radiometric scintillation counting analysis
Threshold 6 nM. IC50 below it: Condition met. IC50 at it or above: Condition not met.

Data request: Hello, I'm reviewing records and need to know if IC50 of COc1cc2c(cc1Nc1nc(Nc3ccccc3S(=O)(=O)N(C)C)c3c(-c4ccncc4)c[nH]c3n1)CN(C)CC2 is below 6 nM. Could you check?
Data returned: Condition not met

Data request: Please indicate whether the reported IC50 of COc1cc2c(cc1Nc1nc(Nc3ccccc3S(=O)(=O)C(C)C)c3cc[nH]c3n1)CN(C)CC2 is strictly below 6 nM.
Data returned: Condition met

Data request: Check if IC50 falls below 6 nM for COc1cc2c(cc1Nc1nc(Nc3ccccc3F)c3cc[nH]c3n1)CN(C)CC2 .
Data returned: Condition not met

Data request: Find out if reported IC50 for CCOc1cc(Nc2nc(Nc3ccccc3S(=O)(=O)N(C)C)c3c(-c4cccnc4)c[nH]c3n2)ccc1N1CCOCC1 is less than 6 nM
Data returned: Condition met

Data request: Does this compound meet the criterion IC50 < 6 nM? CN1CCc2cc(Cl)c(Nc3nc(Nc4ccccc4S(=O)(=O)N(C)C)c4c(-c5cccnc5)c[nH]c4n3)cc2C1
Data returned: Condition met

Data request: State whether 6 nM exceeds IC50 recorded for COc1cc2c(cc1Nc1nc(Nc3ccccc3S(=O)(=O)N3CCC(C)(C)CC3)c3cc[nH]c3n1)CN(C)CC2 .
Data returned: Condition not met
